Target: human CD137 expressed on DO11.10 cells (DO11.10-hCD137) (human, UniProt Q07011 24-255)
Sequence (Q07011 24-255): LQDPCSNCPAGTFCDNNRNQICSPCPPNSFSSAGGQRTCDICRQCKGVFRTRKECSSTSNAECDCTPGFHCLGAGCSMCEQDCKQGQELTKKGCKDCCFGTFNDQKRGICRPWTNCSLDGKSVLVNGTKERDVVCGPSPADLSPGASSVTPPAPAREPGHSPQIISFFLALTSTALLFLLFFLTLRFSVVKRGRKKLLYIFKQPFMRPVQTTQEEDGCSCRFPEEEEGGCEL
Experiment: cell-based or functional assay
measurement_label: Emax of mIL-2 release, DO11.10-hCD137 assay, crosslinked (pg/mL)
Expressed in pg/mL, but write only the number.

Please review the entries below; each comes with its answer.
binder	result_number
FS20-22-49AA/FS30-35-14 (bispecific antibody, human IgG1, kappa, L234A L235A, V domains shown, IgG1 with LALA; also called OX40/CD137 mAb^2) VH: EVQLLESGGGLVQPGGSLRLSCAASGFTFSAYNIHWVRQAPGKGLEWVSDISPYGGATNYADSVKGRFTISRDNSKNTLYLQMNSLRAEDTAVYYCARNLYELSAYSYGADYWGQGTLVTVSS VL: EIVLTQSPGTLSLSPGERATLSCRASQSVSSSYLAWYQQKPGQAPRLLIYGASSRATGIPDRFSGSGSGTDFTLTISRLEPEDFAVYYCQQYYYSSPITFGQGTKVEIKR	19800
FS20-22-49AA/FS30-10-12 (bispecific antibody, human IgG1, kappa, L234A L235A, V domains shown, IgG1 with LALA; also called OX40/CD137 mAb^2) VH: EVQLLESGGGLVQPGGSLRLSCAASGFTFSSYDMSWVRQAPGKGLEWVSDIDPTGSKTDYADSVKGRFTISRDNSKNTLYLQMNSLRAEDTAVYYCARDLTVYGFDYWGQGTLVTVSS VL: EIVLTQSPGTLSLSPGERATLSCRASQSVSSSYLAWYQQKPGQAPRLLIYGASSRATGIPDRFSGSGSGTDFTLTISRLEPEDFAVYYCQQSYSYPVTFGQGTKVEIKR	17200

Sample FS20-22-49AA/FS30-10-3 (bispecific antibody, human IgG1, kappa, L234A L235A, V domains shown, IgG1 with LALA; also called OX40/CD137 mAb^2) VH: EVQLLESGGGLVQPGGSLRLSCAASGFTFSSYDMSWVRQAPGKGLEWVSDIDPTGSKTDYADSVKGRFTISRDNSKNTLYLQMNSLRAEDTAVYYCARDLNVYGFDYWGQGTLVTVSS VL: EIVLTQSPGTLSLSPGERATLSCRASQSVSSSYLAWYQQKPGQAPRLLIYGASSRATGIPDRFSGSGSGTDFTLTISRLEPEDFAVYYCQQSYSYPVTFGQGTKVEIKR — what was its Emax of mIL-2 release, DO11.10-hCD137 assay, crosslinked?
17000
